Listing: % of inhibition of ovulation of selected compounds
# study_system: LH-RH receptors (Rattus norvegicus, UniProt P30969)
# Sequence (P30969 whole entry): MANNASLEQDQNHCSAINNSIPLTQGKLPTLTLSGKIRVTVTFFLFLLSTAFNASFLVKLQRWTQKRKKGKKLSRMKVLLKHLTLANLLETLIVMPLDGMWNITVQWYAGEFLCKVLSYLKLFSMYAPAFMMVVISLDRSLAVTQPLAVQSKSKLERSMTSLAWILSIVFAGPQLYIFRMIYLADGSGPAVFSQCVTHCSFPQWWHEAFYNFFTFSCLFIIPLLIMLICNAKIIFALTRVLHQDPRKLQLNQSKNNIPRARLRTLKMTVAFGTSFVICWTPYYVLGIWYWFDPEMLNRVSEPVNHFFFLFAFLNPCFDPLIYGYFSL
# setup_conditions: 1 μg/rat s.c.
Square brackets hold non-standard residues; d marks the D form. Peptide text beside a SMILES is read from it. * marks the point of attachment. dPhe(4-Cl) = N[C@H](Cc1ccc(Cl)cc1)C(=O)O; d2Nal = N[C@H](Cc1ccc2ccccc2c1)C(=O)O; d(hCit) = NC(=O)NCCCC[C@@H](N)C(=O)O; Lys(iPr) = CC(C)NCCCC[C@H](N)C(=O)O; dCit = NC(=O)NCCC[C@@H](N)C(=O)O; tBuAla = CC(C)(C)C[C@H](N)C(=O)O; d3Pal = N[C@H](Cc1cccnc1)C(=O)O; Nicotinoyl = O=C(c1cccnc1)*
assay_readout: % of inhibition of ovulation

INSERT INTO assay_data (compound, measurement) VALUES
  ('CC(=O)N[C@H](Cc1ccc2ccccc2c1)C(=O)N[C@H](Cc1ccc(Cl)cc1)C(=O)N[C@H](Cc1cccnc1)C(=O)N[C@@H](CO)C(=O)N[C@@H](CCCCNC(=O)c1cccnc1)C(=O)N[C@H](CCCCNC(=O)c1cccnc1)C(=O)N[C@@H](CC(C)(C)C)C(=O)N[C@@H](CCCCNC(C)C)C(=O)N1CCC[C@H]1C(=O)N[C@H](C)C(N)=O [Example 15] (Ac-[d2Nal][dPhe(4-Cl)][d3Pal]SK(Nicotinoyl)[dK](Nicotinoyl)[tBuAla][Lys(iPr)]P[dA]-NH2)', '80%'),
  ('CC(=O)N[C@H](Cc1ccc2ccccc2c1)C(=O)N[C@H](Cc1ccc(Cl)cc1)C(=O)N[C@H](Cc1cccnc1)C(=O)N[C@@H](CO)C(=O)N[C@@H](Cc1ccc(O)cc1)C(=O)N[C@H](CCCNC(N)=O)C(=O)N[C@@H](CC(C)(C)C)C(=O)N[C@@H](CCCCNC(C)C)C(=O)N1CCC[C@H]1C(=O)N[C@H](C)C(N)=O [Example 17] (Ac-[d2Nal][dPhe(4-Cl)][d3Pal]SY[dCit][tBuAla][Lys(iPr)]P[dA]-NH2)', '100%'),
  ('CC(=O)N[C@H](Cc1ccc2ccccc2c1)C(=O)N[C@H](Cc1ccc(Cl)cc1)C(=O)N[C@H](Cc1cccnc1)C(=O)N[C@@H](CO)C(=O)N[C@@H](Cc1ccc(O)cc1)C(=O)N[C@H](CCCCNC(N)=O)C(=O)N[C@@H](CC(C)(C)C)C(=O)N[C@@H](CCCNC(=N)N)C(=O)N1CCC[C@H]1C(=O)N[C@H](C)C(N)=O [Example 19] (Ac-[d2Nal][dPhe(4-Cl)][d3Pal]SY[d(hCit)][tBuAla]RP[dA]-NH2)', '100%'),
  ('CC(=O)N[C@H](Cc1ccc2ccccc2c1)C(=O)N[C@H](Cc1ccc(Cl)cc1)C(=O)N[C@H](Cc1cccnc1)C(=O)N[C@@H](CO)C(=O)N[C@@H](Cc1ccc(O)cc1)C(=O)N[C@H](CCCNC(N)=O)C(=O)N[C@@H](CC(C)(C)C)C(=O)N[C@@H](CCCNC(=N)N)C(=O)N1CCC[C@H]1C(=O)N[C@H](C)C(N)=O [Example 16] (Ac-[d2Nal][dPhe(4-Cl)][d3Pal]SY[dCit][tBuAla]RP[dA]-NH2)', '100%'),
  ('CC(=O)N[C@H](Cc1ccc2ccccc2c1)C(=O)N[C@H](Cc1ccc(Cl)cc1)C(=O)N[C@H](Cc1cccnc1)C(=O)N[C@@H](CO)C(=O)N[C@@H](Cc1ccc(O)cc1)C(=O)N[C@H](CCCCNC(N)=O)C(=O)N[C@@H](CC(C)(C)C)C(=O)N[C@@H](CCCCNC(C)C)C(=O)N1CCC[C@H]1C(=O)N[C@H](C)C(N)=O [Example 18] (Ac-[d2Nal][dPhe(4-Cl)][d3Pal]SY[d(hCit)][tBuAla][Lys(iPr)]P[dA]-NH2)', '80%'),
  ('CC(=O)N[C@H](Cc1ccc2ccccc2c1)C(=O)N[C@H](Cc1ccc(Cl)cc1)C(=O)N[C@H](Cc1cccnc1)C(=O)N[C@@H](CO)C(=O)N[C@@H](CCCCNC(=O)c1cccnc1)C(=O)N[C@H](CCCCNC(=O)c1cccnc1)C(=O)N[C@@H](CC(C)C)C(=O)N[C@@H](CCCCNC(C)C)C(=O)N1CCC[C@H]1C(=O)N[C@H](C)C(N)=O [Antide, reference compound] (Ac-[d2Nal][dPhe(4-Cl)][d3Pal]SK(Nicotinoyl)[dK](Nicotinoyl)L[Lys(iPr)]P[dA]-NH2)', '69%');
